# Test system: SARS-CoV-2
# Assay overview: microbe, parasite or virus in culture
# Type: cell-based
# Assay context: overall, 1 or 5 uM

Molecule	HIT
O=C(O)CNC(=O)C1C(=O)N(C2CCCCC2)C(=O)N(C2CCCCC2)C1=O	Yes
CS(=O)(=O)N1CCN(Cc2cc3nc(-c4cccc5[nH]ncc45)nc(N4CCOCC4)c3s2)CC1	Yes
O=C(c1ccc(F)cc1)N1CCC[C@H](c2nc(-c3ccc(F)cc3)no2)C1	Yes
CC(C(=O)O)c1ccc(C(=O)c2ccccc2)s1 (stereo not shown)	Yes

* * *

Listing: Average Cell Number (1 uM) of selected compounds
# Assay context: compound at 1 uM, average of normalized cell number, n=3, relative to DMSO

Compound	Average Cell Number (1 uM)
COc1nc2ccc(Br)cc2cc1[C@@H](c1ccccc1)[C@@](O)(CCN(C)C)c1cccc2ccccc12	0.6048
CN(C)[C@@H]1C(O)=C(C(N)=O)C(=O)[C@@]2(O)C(O)=C3C(=O)c4c(O)cccc4[C@@](C)(O)[C@H]3[C@H](O)[C@@H]12	0.8352
CCCCN(CCCC)CCC(O)c1cc2c(Cl)cc(Cl)cc2c2cc(C(F)(F)F)ccc12 (stereo not drawn) [Halofantrine lot −4, halofantrine]	0.8035

Lookup: Need Average Cell Number (1 uM), item "CC1(C)Cc2c(-c3ccccc3)c(-c3ccc(Cl)cc3)c(CC(=O)O)n2C1"
Found: 0.6254

Lookup: What about "CC(C)(C)c1cc(C(C)(C)C)c(NC(=O)c2c[nH]c3ccccc3c2=O)cc1O" ?
Found: 0.6354

Lookup: What about "CC(C)C[C@@H](NC(=O)[C@H](Cc1ccccc1)NC(=O)CNC(=O)[C@@H](C)NC(=O)[C@@H](N)Cc1ccc(O)cc1)C(=O)O" ?
Found: 0.7534

* * *

# Assay context: compound at 5 uM, average of normalized cell number, n=3, relative to DMSO
Value kind: Average Cell Number (5 uM)
Please reply with the value in numeric form only.

Here's what some known entries look like.
Molecule	Value kind	Reading
CC1(N)CCN(c2cccnc2NC(=O)c2nc(-c3ncccc3C(F)(F)F)cnc2N)CC1 [LXS-196, lxs196]	Average Cell Number (5 uM)	0.5379
CCCCN(CCCC)CCC(O)c1cc2c(Cl)cc(Cl)cc2c2cc(C(F)(F)F)ccc12 (stereo not shown) [Halofantrine lot −4, halofantrine]	Average Cell Number (5 uM)	0.6652
CC1(C)Cc2c(-c3ccccc3)c(-c3ccc(Cl)cc3)c(CC(=O)O)n2C1 [Licofelone, licofelone]	Average Cell Number (5 uM)	0.8061
Nc1cc(C(F)(F)F)c(-c2nc(N3CCOCC3)nc(N3CCOCC3)n2)cn1 [Bimiralisib, bimiralisib]	Average Cell Number (5 uM)	0.4637
FC(F)(F)c1cccc(C2=CCN(CCc3ccc4ccccc4c3)CC2)c1 [Xaliproden, xaliproden]	Average Cell Number (5 uM)	0.9135
C[C@@H]1CN(Cc2ccc(F)cc2)[C@@H](C)CN1C(=O)c1cc2c(C(=O)C(=O)N(C)C)cn(C)c2cc1Cl [SCIO 469, talmapimod]	Average Cell Number (5 uM)	0.95

Turning now to a further molecule:
Lookup: Need Average Cell Number (5 uM), item CS(=O)(=O)N1CCc2c(-c3cnc(N)nc3)nc(N3CCOCC3)nc21 [CH5132799, ch5132799]
Found: 0.5239

* * *

# Tested on: SARS-CoV-2
# Assay overview: microbe, parasite or virus in culture
# Assay type: cell-based
# Assay context: overall, 1 or 5 uM
Value kind: HIT

Molecule	HIT
CC(C)N1CCN(Cc2cnc(-c3cc(-c4cccc5[nH]ccc45)cc4[nH]ncc34)o2)CC1 [GSK2269557, nemiralisib]	Yes
C#C[C@]1(O)CC[C@H]2[C@@H]3CCC4=CC(=O)CC[C@@H]4[C@H]3C(=C)C[C@@]21CC [Etonogestrel, etonogestrel]	Yes
CCCCC[C@H](O)/C=C/[C@@H]1[C@@H](C/C=C\CCCC(=O)O)[C@@H](O)C[C@H]1O [Prostagladin F2a, dinoprost]	Yes
C[N+]12CCC(CC1)C(OC(=O)C(O)(c1ccccc1)c1ccccc1)C2 (stereo not drawn) [Clidinium, clidinium]	Yes
CCCCN(CCCC)CCC(O)c1cc2c(Cl)cc(Cl)cc2c2cc(C(F)(F)F)ccc12 (stereo not drawn) [Halofantrine lot −4, halofantrine]	Yes

Turning now to a further molecule:
Lookup: Need HIT, item CC(C)(C[C@H]1CN(S(=O)(=O)c2cccc(C(F)(F)F)c2)c2cc(-c3cc(F)cc(OC(F)F)c3)ccc2O1)C(=O)O [Cintirorgon, cintirorgon]
Found: Yes
